Tested on: 786-0 renal
Assay: NCI tumour cell line growth inhibition, 48 h
For each entry below, report its TGI value.
Output spec: scalar in µM, unitless text.

Quick one: TGI for CN1CCN(c2ccc(Nc3ncc(Cl)c(NC[C@@H]4CCCO4)n3)cc2)CC1 ? 15.1

Quick one: TGI for C=C1C(=O)O[C@@H]2/C=C(C)/C=C\[C@@H]3O[C@@]3(C)C[C@@H](O)C12 (stereo not given in full) ? 21.1

Quick one: TGI for C=C1C(=O)O[C@H]2[C@H]1CC/C(CNC(=O)c1cc3ccccc3[nH]1)=C\CC[C@@]1(C)O[C@@H]21 ? 3.43

Quick one: TGI for C(=C/CCCN1O[C@@H](CCCCCCCCc2cccnc2)[C@H]2CCC[C@H]21)/CCCCCCCCCc1cccnc1 ? 37

Quick one: TGI for Cc1ccc(-c2nc(N3CCNCC3)c3oc(-c4ccc(C)cc4)nc3n2)cc1 ? 3.24

Quick one: TGI for COCCn1cc(-c2nc(-c3cc4cccnc4[nH]3)cs2)c2cc(OC)ccc21 ? 20.9

Quick one: TGI for COC(=O)[C@]1(C)CCC[C@@]2(C)C1CC[C@@]13C=C(C(C)C)[C@@H](CC1=O)CC23 (stereo not given in full) ? 60.7

Quick one: TGI for CCC(C)SC1SCC2C(=O)N(C)C3(CC3C)C(=O)OCC(NC(=O)c3nc4ccccc4cc3O)C(=O)NC(C)C(=O)N(C)C1C(=O)N(C)C1(CC1C)C(=O)OCC(NC(=O)c1nc3ccccc3cc1O)C(=O)NC(C)C(=O)N2C (stereo not given) ? 1.3

Quick one: TGI for Br[Se]c1ccccn1 ? 32.6

---

For each entry below, report its TGI value.
System: SR leukemia
Test: NCI tumour cell line growth inhibition, 48 h

Quick one: TGI for CN(C)CC1CCC/C1=N/OC(=O)c1ccccc1 (stereo not given) ? > 100 µM

Quick one: TGI for CN1CCN(c2ccc(Nc3ncc(Cl)c(NC[C@@H]4CCCO4)n3)cc2)CC1 ? 6.03 µM

Quick one: TGI for O=C1c2sc(-c3ccc(Cl)cc3)cc2-n2cccc21 ? > 100 µM

Quick one: TGI for Cc1cc(OC(=O)Nc2cccc3ccccc23)c(C(C)C)cc1C(=S)Nc1ccccc1 ? 33.5 µM

Quick one: TGI for C=C1C(=O)O[C@H]2[C@H]1CC/C(CNC(=O)c1cc3ccccc3[nH]1)=C\CC[C@@]1(C)O[C@@H]21 ? 3.4 µM

Quick one: TGI for NC(N)=NS(=O)(=O)c1ccc(N=Nc2c(O)c(C(=O)O)cc3ccccc23)cc1 ? > 100 µM

Quick one: TGI for CCOC(=O)C1Sc2ccccc2N=C1C (stereo not given) ? > 100 µM

Quick one: TGI for O=c1[nH]c2cc(Cl)ccc2nc1/C(=N\Nc1ccccc1)C(O)c1ccc(Cl)c(Cl)c1 (stereo not given) ? > 100 µM

Quick one: TGI for O=C1CSC(=S)N1/N=C/c1ccc(Cl)c([N+](=O)[O-])c1 ? > 100 µM

Quick one: TGI for CN(C)c1ccc(/C=N/NC(=S)Nc2ccccc2)cc1 ? > 100 µM

---

Test system: SNB-75 CNS
Assay: NCI tumour cell line growth inhibition, 48 h
measure name: TGI (µM)
Output spec: scalar in µM, unitless text.

Quick one: TGI for C[C@]12c3c4cc(NC(=O)C(=O)NCc5ccc(-c6ccccn6)nc5)cc3Oc3cc(NC(=O)C(=O)NCc5ccc(-c6ccccn6)nc5)cc(c31)OC1C=C(NC(=O)C(=O)NCc3ccc(-c5ccccn5)nc3)C=C(O4)C12 (some centres undefined) ? 76.3

Quick one: TGI for CN1CCN(C(=O)COc2ccc(C34CC5CC(CC(C5)C3)C4)cc2)CC1 ? 29.3

Quick one: TGI for CC(=C(c1ccc(OCCN2CCCCC2)cc1)c1ccc(OCCN2CCCCC2)cc1)c1ccc(Cl)cc1 ? 0.673

Quick one: TGI for CCOc1ccc(NC2=CC(=O)C(=O)c3ccccc32)cc1 ? 5.35
